system: Vero E6 infected with SARS-CoV-2; test: inhibition of SARS-CoV-2 cytopathic effect; higher = more antiviral protection, active = above 15; conditions: 1 nM; 48 h
Record form. Attribute: inhibition of SARS-CoV-2 cytopathic effect. Fill in for each entry.
Answers are plain numbers, in %.

Solved entries:
COMPOUND	UNITS_SYMBOL	NUMERIC_RESULT
O=c1[nH]cc(F)c(=O)[nH]1	%	0.75
O=C(C1CCCCC1)N1CC(=O)N2CCc3ccccc3C2C1 (configuration not stated)	%	-1.8
COc1cc2cc(c1Cl)N(C)C(=O)C[C@H](OC(=O)C(C)C)[C@]1(C)O[C@@H]1[C@H](C)[C@@H]1C[C@@](O)(NC(=O)O1)[C@H](OC)/C=C/C=C(\C)C2	%	2.87
CN1CCN(C(c2ccccc2)c2ccccc2)CC1	%	-1.86

For each of the compounds below, state inhibition of SARS-CoV-2 cytopathic effect.
1. CC(O)CN1CCN(CC(=O)[O-])CCN(CC(=O)[O-])CCN(CC(=O)[O-])CC1.[Gd+3] (configuration not stated)
2. Fc1ccccc1-c1nc2ccn(Cc3ccc(-c4ccc(C(F)(F)F)cc4C(F)(F)F)nn3)cc-2n1

1. 0.66
2. 0.53

For each of the compounds below, state inhibition of SARS-CoV-2 cytopathic effect.
1. COc1cc2c(cc1OC)C1CC(=O)C(CC(C)C)CN1CC2 (configuration not stated)
2. CC(=O)O[C@]1(C(C)=O)CC[C@H]2[C@@H]3CCC4=CC(=O)CCC4=C3[C@@H](c3ccc(N(C)C)cc3)C[C@@]21C [Ulipristal acetate]
3. COc1ccc2c(c1)c(CC(=O)N1CCOCC1)c(C)n2C(=O)c1ccc(Cl)cc1
4. CNCC[C@@H](Oc1ccccc1C)c1ccccc1

-2.11
4.79
0.39
1.13

###

test system: Vero E6 infected with SARS-CoV-2; test: inhibition of SARS-CoV-2 cytopathic effect; higher = more antiviral protection, active = above 15; details: 833.33 nM; 48 h
Please reply with one of these outcomes: active, inactive

Here's what some known entries look like.
SUBSTANCE_SMILES	EXPERIMENTAL_TARGET	ANSWER_LABEL
CNC(=O)c1ccccc1Sc1ccc2c(/C=C/c3ccccn3)n[nH]c2c1	Vero E6 infected with SARS-CoV-2	inactive
CC(C)(O)c1ccn2c(-c3ccc(F)c(-c4ccc(F)cc4C#N)c3)cnc2c1F	Vero E6 infected with SARS-CoV-2	inactive
Cc1ncc(CO)c(C=O)c1O	Vero E6 infected with SARS-CoV-2	inactive
CCCCN1[C@@H]2CC[C@H]1C[C@@H](OC(c1ccc(F)cc1)c1ccc(F)cc1)C2	Vero E6 infected with SARS-CoV-2	inactive
CC(=O)O[C@H]1C(=O)[C@@]2(C)[C@H]([C@H](OC(=O)c3ccccc3)[C@]3(O)C[C@H](OC(=O)[C@H](O)[C@@H](NC(=O)c4ccccc4)c4ccccc4)C(C)=C1C3(C)C)[C@]1(OC(C)=O)CO[C@@H]1C[C@@H]2O	Vero E6 infected with SARS-CoV-2	inactive

Field: next molecule
Please let me know the test result on file for CCOC(=O)c1ncn2c1CN(C)C(=O)c1cc(N=[N+]=[N-])ccc1-2 . inactive

###

Record form. Attribute: inhibition of SARS-CoV-2 cytopathic effect. Fill in for each entry.
test system: Vero E6 infected with SARS-CoV-2; test: inhibition of SARS-CoV-2 cytopathic effect; higher = more antiviral protection, active = above 15; settings: 833.33 nM; 48 h
One number for each entry, in %.

For each of the compounds below, state inhibition of SARS-CoV-2 cytopathic effect.
1. N=C(N)NCCC[C@@H](N)C(=O)N[C@@H](CCCNC(=N)N)C(=O)N1CCC[C@H]1C(=O)N1C[C@H](O)C[C@H]1C(=O)NCC(=O)N[C@@H](Cc1cccs1)C(=O)N[C@@H](CO)C(=O)N1Cc2ccccc2C[C@@H]1C(=O)N1[C@H](C(=O)N[C@@H](CCCNC(=N)N)C(=O)O)C[C@@H]2CCCC[C@@H]21 [icatibant-acetate]
2. Nc1cc(F)ccc1NC(=O)/C=C/c1cnn(C/C=C/c2ccccc2)c1
3. O=C(Nc1ccc(-c2ccncc2)cc1)N[C@H](CO)c1ccccc1
4. CC(C)(C)c1cc(C(C)(C)C)c(NC(=O)c2c[nH]c3ccccc3c2=O)cc1O [ivacaftor]

[2.14, -2.26, -0.94, -10.4]

###

Record form. Attribute: inhibition of SARS-CoV-2 cytopathic effect. Fill in for each entry.
test system: Vero E6 infected with SARS-CoV-2; test: inhibition of SARS-CoV-2 cytopathic effect; higher = more antiviral protection, active = above 15; settings: 1 nM; 48 h
One number for each entry, in %.

For each of the molecules below, state inhibition of SARS-CoV-2 cytopathic effect.
1. Cc1cc(C)nc(NS(=O)(=O)c2ccc(N)cc2)n1
2. Cc1cc2nc3c(=O)[nH]c(=O)nc-3n(C[C@H](O)[C@H](O)[C@H](O)COP(=O)(O)O)c2cc1C [riboflavin-5-phosphate-sodium]
3. CC(C)c1nc(CN(C)C(=O)N[C@H](C(=O)N[C@@H](Cc2ccccc2)C[C@H](O)[C@H](Cc2ccccc2)NC(=O)OCc2cncs2)C(C)C)cs1 [ritonavir]
4. Cc1ccc(-n2nc(C(C)(C)C)cc2NC(=O)Nc2ccc(OCCN3CCOCC3)c3ccccc23)cc1
5. O=C1c2ccccc2CCC1CNCCc1ccc(O)cc1 (stereo unspecified)

1. -2.32
2. 0.5
3. 0.04
4. -2.22
5. 0.05

###

system: Vero E6 infected with SARS-CoV-2; experiment: inhibition of SARS-CoV-2 cytopathic effect; higher = more antiviral protection, active = above 15; settings: 833.33 nM; 48 h
ASSAY_METRIC: inhibition of SARS-CoV-2 cytopathic effect (%)
One number for each entry, in %.

Solved entries:
>>> print(df.to_string())
                                   compound               experimental_target  units_symbol  numeric_result
0  C/C(=N\NC(=N)N)c1cc(NC(=O)CCCCCCCCC(=O)Nc2cc(/C(C)=N/NC(=N)N)cc(/C(C)=N/NC(=N)N)c2)cc(/C(C)=N/NC(=N)N)c1  Vero E6 infected with SARS-CoV-2             %            7.62
1  FC(F)(F)c1ccc(CNc2ccc(Cc3c[nH]c4ncc(Cl)cc34)cn2)cn1  Vero E6 infected with SARS-CoV-2             %            0.96
2  Nc1cccc2c(=O)[nH][nH]c(=O)c12 [monosodium-alpha-luminol]  Vero E6 infected with SARS-CoV-2             %           -0.92

For each of the compounds below, state inhibition of SARS-CoV-2 cytopathic effect.
1. C=CCN1CCCC1CNC(=O)c1cc2nn[nH]c2cc1OC (stereo not drawn) [alizapride]
2. Cc1nc2c([nH]1)-c1ccccc1N(C(=O)c1ccc(NC(=O)c3ccccc3-c3ccccc3)cc1)CC2
3. CS(=O)(=O)n1cc2c(n1)CN([C@H]1CO[C@H](c3cc(F)ccc3F)[C@@H](N)C1)C2

1. -1.24
2. -0.62
3. 1.96

For each of the compounds below, state inhibition of SARS-CoV-2 cytopathic effect.
1. C[C@H](Nc1ncnc2[nH]cnc12)c1cc2ccc(F)cc2nc1-c1ccccn1
2. COC(=O)C1=C(C)NC(C)=C(C(=O)OC(C)C)[C@@H]1c1cccc2nonc12

1.33
2.05

###

system: Vero E6 infected with SARS-CoV-2; assay: inhibition of SARS-CoV-2 cytopathic effect; higher = more antiviral protection, active = above 15; settings: 8.33 nM; 48 h
Record form. Attribute: inhibition of SARS-CoV-2 cytopathic effect. Fill in for each entry.
One number for each entry, in %.

Solved entries:
                                   compound  units_symbol  numeric_result
0  Cc1c(CN2CCN(C(=O)[C@H](C)O)CC2)sc2c(N3CCOCC3)nc(-c3cnc(N)nc3)nc12             %            0.05
1  CC[C@@H](C)N(C)C(=O)c1cc2ccccc2c(-c2ccccc2Cl)n1             %            0.72
2  COc1ccc(C(=O)NCc2ccc(OCCN(C)C)cc2)cc1OC [itopride]             %           -0.19

For each of the compounds below, state inhibition of SARS-CoV-2 cytopathic effect.
1. COc1cc(C(=S)N2CCOCC2)ccc1O [vanitiolide]
2. [N-]=[N+]=N[C@]1(CO)O[C@@H](n2ccc(N)nc2=O)[C@H](O)[C@@H]1O
3. c1ccc(Oc2nc(NC3CCCCC3)c3[nH]cnc3n2)cc1
4. CCCCCC(O)CCCC(=O)O (stereo not given)
5. O=C1c2c(O)cc(O)cc2O[C@H](c2cc(O)c(O)c(O)c2)[C@H]1O [dihydromyricetin]
6. O=C(c1ccccc1)c1ccc2n1CCC2C(=O)O (stereo not given) [ketorolac]
7. Cc1cc(Nc2cc(CN3CCOCC3)c3nc(C)c(Cc4ccc(Cl)cc4F)n3n2)n[nH]1

-1.31
0.795
-0.47
-6.54
3.54
-2.99
1
